experimental.system: T1, non-activatable Factor X (FXn) (Homo sapiens (Human), UniProt P00742 41-488, single biotin on the C-terminal BioTag)
T1 construct: also called BIIB-FX-015
assay.notes: BLI; class meaning: paragraph 285

binder	binding result
BIIB-12-1292 (antibody, V domains shown, IgG) VH: QVQLVQSGAEVKKPGASVKVSCKASGYTFTSYYIHWVRQAPGQGLEWMGIINPSGGSTSYAQKFQGRVTMTRDTSTSTVYMELSSLRSEDTAVYYCARDPGRRQSSGFDYWGQGTLVTVSS VL: EIVMTQSPATLSLSPGERATLSCRASQSVSSYLAWYQQKPGQAPRLLIYDSSNRATGIPARFSGSGSGTDFTLTISSLEPEDFAVYYCQQRLNFPFTFGGGTKVEIK	binds
BIIB-12-1305 (antibody, V domains shown, IgG) VH: QVQLVESGGGVVQPGRSLRLSCAASGFTFSSYGMHWVRQAPGKGLEWVAVISYDGSNKYYADSVKGRFTISRDNSKNTLYLQMNSLRAEDTAVYYCAKLGGRWSSDFQHWGQGTLVTVSS VL: EIVLTQSPATLSLSPGERATLSCRASQSVSSYLAWYQQKPGQAPRLLIYDASNRATGIPARFSGSGSGTDFTLTISSLEPEDFAVYYCQQSANWPPTFGGGTKVEIK	binds
